experiment: single-dose pharmacokinetics and oral bioavailability; assay type: in vivo, Sprague-Dawley rats; details: female, Sprague-Dawley, rat, plasma, iv, 1 mg/kg, t1/2, S2218 iv 1 mg/kg bw, F
ENDPOINT: half-life (min)
One number for each entry, in min.

Recorded half-life (molecule Cc1cc(C(=O)NC(C)(C)COc2cccc3c2C(N)=NS(=O)(=O)N3)cc(C)n1 [S2218] ): 10.4

====

assay: single-dose pharmacokinetics and oral bioavailability; assay type: in vivo, Sprague-Dawley rats; details: female, Sprague-Dawley, rat, plasma, iv, 1 mg/kg
ENDPOINT: Cmax (ng/mL)
One number for each entry, in ng/mL.

Recorded Cmax (compound Cc1cc(C(=O)NC(C)(C)COc2cccc3c2C(N)=NS(=O)(=O)N3)cc(C)n1 ): 3150

====

assay: single-dose pharmacokinetics and oral bioavailability; format: in vivo, Sprague-Dawley rats; settings: male, Sprague-Dawley, rat, plasma, iv, 1 mg/kg
ENDPOINT: AUC(0-t) (ng·h/mL)
Numbers only, in ng·h/mL.

Recorded AUC(0-t) (molecule Cc1cc(C(=O)NC(C)(C)COc2cccc3c2C(N)=NS(=O)(=O)N3)cc(C)n1 ): 500

====

assay: single-dose pharmacokinetics and oral bioavailability; type: in vivo, Sprague-Dawley rats; settings: male, Sprague-Dawley, rat, plasma, po, 10 mg/kg
ENDPOINT: Tmax (min)
Numbers only, in min.

Recorded Tmax (compound Cc1cc(C(=O)NC(C)(C)COc2cccc3c2C(N)=NS(=O)(=O)N3)cc(C)n1 ): 18.8

====

experiment: single-dose pharmacokinetics and oral bioavailability; assay type: in vivo, Sprague-Dawley rats; settings: male, Sprague-Dawley, rat, plasma, iv, 1 mg/kg
ENDPOINT: Tmax (min)
Answers are plain numbers, in min.

Recorded Tmax (molecule Cc1cc(C(=O)NC(C)(C)COc2cccc3c2C(N)=NS(=O)(=O)N3)cc(C)n1 ): 1.98

====

assay: single-dose pharmacokinetics and oral bioavailability; type: in vivo, Sprague-Dawley rats; details: female, Sprague-Dawley, rat, plasma, iv, 1 mg/kg
ENDPOINT: AUC(0-t) (ng·h/mL)
Give bare numbers, in ng·h/mL.

Recorded AUC(0-t) (molecule Cc1cc(C(=O)NC(C)(C)COc2cccc3c2C(N)=NS(=O)(=O)N3)cc(C)n1 [S2218] ): 440

====

experiment: single-dose pharmacokinetics and oral bioavailability; type: in vivo, Sprague-Dawley rats; details: male, Sprague-Dawley, rat, plasma, po, 30 mg/kg
ENDPOINT: Cmax (ng/mL)
Numbers only, in ng/mL.

Recorded Cmax (molecule Cc1cc(C(=O)NC(C)(C)COc2cccc3c2C(N)=NS(=O)(=O)N3)cc(C)n1 ): 31.2

====

assay: single-dose pharmacokinetics and oral bioavailability; format: in vivo, Sprague-Dawley rats; conditions: female, Sprague-Dawley, rat, plasma, po, 30 mg/kg
ENDPOINT: Cmax
Kindly report the value followed by its unit.

Recorded Cmax (compound Cc1cc(C(=O)NC(C)(C)COc2cccc3c2C(N)=NS(=O)(=O)N3)cc(C)n1 ): 36.8 ng/mL

====

Target: CYP1A2 (Homo sapiens, UniProt P05177)
Sequence (P05177 1-516): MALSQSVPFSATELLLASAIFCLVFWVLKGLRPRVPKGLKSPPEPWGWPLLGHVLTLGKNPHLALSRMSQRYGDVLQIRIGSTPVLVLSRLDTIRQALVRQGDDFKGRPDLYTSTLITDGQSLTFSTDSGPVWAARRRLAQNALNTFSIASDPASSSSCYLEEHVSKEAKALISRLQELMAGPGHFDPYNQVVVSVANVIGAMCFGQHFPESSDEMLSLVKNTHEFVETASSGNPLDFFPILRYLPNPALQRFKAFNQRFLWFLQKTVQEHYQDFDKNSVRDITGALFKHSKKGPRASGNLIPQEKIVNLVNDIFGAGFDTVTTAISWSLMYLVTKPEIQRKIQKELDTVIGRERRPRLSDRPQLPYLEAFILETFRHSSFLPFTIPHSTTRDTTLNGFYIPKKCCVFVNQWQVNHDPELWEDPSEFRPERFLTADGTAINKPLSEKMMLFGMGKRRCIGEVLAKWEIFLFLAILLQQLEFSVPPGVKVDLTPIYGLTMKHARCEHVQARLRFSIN
Assay: CYP inhibition, spectrofluorimetric
Format: biochemical
Conditions: recombinant human CYP1A2 expressed in insect Sf9 cells
ENDPOINT: inhibition at 10 μM

// compound Cc1cc(C(=O)NC(C)(C)COc2cccc3c2C(N)=NS(=O)(=O)N3)cc(C)n1 , assay CYP1A2 (Homo sapiens, UniProt P05177), inhibition at 10 μM value: ≤ 7%
